- assay system: UniProt P11388
- Sequence (P11388 whole entry): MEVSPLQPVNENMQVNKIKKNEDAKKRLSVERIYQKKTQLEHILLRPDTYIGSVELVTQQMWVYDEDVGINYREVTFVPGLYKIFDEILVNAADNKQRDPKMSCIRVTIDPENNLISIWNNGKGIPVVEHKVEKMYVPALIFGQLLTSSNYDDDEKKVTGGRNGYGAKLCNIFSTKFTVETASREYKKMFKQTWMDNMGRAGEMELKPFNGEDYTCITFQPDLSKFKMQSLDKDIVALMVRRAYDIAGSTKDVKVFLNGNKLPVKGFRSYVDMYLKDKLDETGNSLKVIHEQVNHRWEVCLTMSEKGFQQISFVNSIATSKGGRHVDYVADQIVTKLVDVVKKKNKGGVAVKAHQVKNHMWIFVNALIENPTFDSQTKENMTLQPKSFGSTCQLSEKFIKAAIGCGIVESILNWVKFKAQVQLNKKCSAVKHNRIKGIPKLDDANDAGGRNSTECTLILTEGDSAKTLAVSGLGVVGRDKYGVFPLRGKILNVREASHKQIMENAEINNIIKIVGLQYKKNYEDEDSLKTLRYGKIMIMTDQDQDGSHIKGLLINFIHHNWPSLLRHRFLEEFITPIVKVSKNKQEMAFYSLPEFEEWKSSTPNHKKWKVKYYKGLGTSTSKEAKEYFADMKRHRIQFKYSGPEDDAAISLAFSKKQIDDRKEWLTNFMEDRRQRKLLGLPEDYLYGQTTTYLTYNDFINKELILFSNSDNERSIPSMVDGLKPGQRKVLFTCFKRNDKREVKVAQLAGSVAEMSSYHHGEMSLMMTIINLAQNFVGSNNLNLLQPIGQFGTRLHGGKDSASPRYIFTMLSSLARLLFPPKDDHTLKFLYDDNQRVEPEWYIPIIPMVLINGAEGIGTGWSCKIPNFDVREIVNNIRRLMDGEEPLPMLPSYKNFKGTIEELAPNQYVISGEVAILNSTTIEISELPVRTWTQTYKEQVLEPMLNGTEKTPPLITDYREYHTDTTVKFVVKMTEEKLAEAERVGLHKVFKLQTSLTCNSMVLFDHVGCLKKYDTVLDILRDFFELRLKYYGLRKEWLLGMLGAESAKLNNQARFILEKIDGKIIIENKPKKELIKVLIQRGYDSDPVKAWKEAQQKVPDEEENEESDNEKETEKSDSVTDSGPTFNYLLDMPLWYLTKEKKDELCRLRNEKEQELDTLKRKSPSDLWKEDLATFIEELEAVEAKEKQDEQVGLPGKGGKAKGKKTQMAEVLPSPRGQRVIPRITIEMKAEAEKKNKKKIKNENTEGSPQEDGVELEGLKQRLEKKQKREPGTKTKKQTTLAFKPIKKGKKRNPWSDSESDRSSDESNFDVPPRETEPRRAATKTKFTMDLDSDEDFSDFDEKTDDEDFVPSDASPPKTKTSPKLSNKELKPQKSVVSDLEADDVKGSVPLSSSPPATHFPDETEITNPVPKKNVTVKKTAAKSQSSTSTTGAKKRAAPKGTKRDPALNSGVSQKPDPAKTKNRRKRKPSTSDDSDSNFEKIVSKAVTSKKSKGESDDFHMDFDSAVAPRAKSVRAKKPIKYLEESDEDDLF
- assay method text: Inhibition of recombinant human topoisomerase 2alpha-mediated relaxation of supercoiled pBR322 DNA at 100 uM measured after 30 mins by ethidium bromide staining based agarose gel electrophoresis relative to control
experimental endpoint: inhibition (%)
Report only the number, with the unit % understood.

Quick one: inhibition for Oc1ccc(-c2cc(-c3ccccc3F)nc3c2Cc2cc(O)ccc2-3)cc1 ?
10.6

Quick one: inhibition for Oc1ccc2c(c1)-c1nc(-c3ccccc3Cl)cc(-c3ccccc3O)c1C2 ?
76.8

Quick one: inhibition for Oc1ccc(-c2cc(-c3ccc(C(F)(F)F)cc3)nc3c2Cc2ccc(O)cc2-3)cc1 ?
83.1

Quick one: inhibition for Oc1cccc(-c2cc(-c3cccc(C(F)(F)F)c3)nc3c2Cc2cc(O)ccc2-3)c1 ?
85.2

Quick one: inhibition for Oc1ccc(-c2cc(-c3ccc(Cl)cc3)nc3c2Cc2cccc(O)c2-3)cc1 ?
26.2

Quick one: inhibition for Oc1ccc2c(c1)Cc1c(-c3ccccc3O)cc(-c3ccccc3Cl)nc1-2 ?
70.5

Quick one: inhibition for Oc1ccc(-c2cc(-c3ccc(C(F)(F)F)cc3)nc3c2Cc2cccc(O)c2-3)cc1 ?
82.3

Quick one: inhibition for Oc1ccc(-c2cc(-c3ccccc3Cl)nc3c2Cc2ccc(O)cc2-3)cc1 ?
80.9

Quick one: inhibition for Oc1ccc(-c2cc(-c3cccc(Cl)c3)nc3c2Cc2cc(O)ccc2-3)cc1 ?
100

Quick one: inhibition for Oc1ccc(-c2cc(-c3cccc(Cl)c3)c3c(n2)-c2cc(O)ccc2C3)cc1 ?
73.6

Quick one: inhibition for Oc1ccc2c(c1)-c1nc(-c3ccccc3)cc(-c3ccccc3)c1C2 ?
79.9

Quick one: inhibition for Oc1ccccc1-c1cc(-c2ccccc2F)nc2c1Cc1c(O)cccc1-2 ?
24.1

Quick one: inhibition for Oc1cccc2c1Cc1c(-c3ccccc3)cc(-c3ccccc3)nc1-2 ?
75.7
